# testedTarget: Human immunodeficiency virus type 1 integrase (Human immunodeficiency virus 1)
# Sequence (Q7ZJM1 whole entry): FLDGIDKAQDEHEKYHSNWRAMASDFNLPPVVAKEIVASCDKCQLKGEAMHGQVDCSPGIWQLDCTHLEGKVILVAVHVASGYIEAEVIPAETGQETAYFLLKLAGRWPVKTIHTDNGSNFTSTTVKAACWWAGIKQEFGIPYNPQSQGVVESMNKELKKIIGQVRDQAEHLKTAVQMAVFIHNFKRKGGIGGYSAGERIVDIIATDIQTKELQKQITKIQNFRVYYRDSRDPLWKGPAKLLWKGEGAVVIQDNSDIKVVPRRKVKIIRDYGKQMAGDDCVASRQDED
Lab note: anything with IC50 below 0.2 µM is marked YES; values at 0.2 µM or higher are marked NO.

**Q:** Quick check: IC50 of CN(C)S(=O)(=O)Oc1c2c(c(O)c3ncccc13)C(=O)N(Cc1ccc(F)cc1)C2 under 0.2 µM?
**A:** NO

**Q:** Is IC50 strictly under 0.2 µM for the entry O=C(O)/C(O)=C/C(=O)c1cccn1Cc1ccc(-c2ccccc2)cc1 ?
**A:** NO

**Q:** Criterion: IC50 strictly below 0.2 µM. Is it met by O=C(O)/C(O)=C/C(=O)c1ccn(Cc2ccccc2)c1 ?
**A:** NO

**Q:** Please check: IC50 for O=C(O)/C(O)=C/C(=O)c1ccc(Oc2ccccc2)cc1 , strictly under 0.2 µM or not?
**A:** NO

**Q:** Answer whether the compound O=C(O)/C(O)=C/C(=O)c1cccc(Cc2cccc(F)c2)c1 has IC50 strictly less than 0.2 µM
**A:** NO

**Q:** Regarding O=C(O)/C(O)=C/C(=O)c1ccc(Cc2ccccc2)s1 , kindly confirm whether its IC50 is beneath 0.2 µM.
**A:** NO

**Q:** API: query returns whether the compound falls strictly under 0.2 µM in IC50. Query: [N-]=[N+]=NCc1cccc(C(=O)/C=C(\O)C(=O)O)c1
**A:** NO

**Q:** Confirm or reject: IC50 of O=C(O)/C(O)=C/C(=O)c1ccccc1Cc1ccccc1 lies strictly below 0.2 µM
**A:** NO

**Q:** Quick check: does O=C(O)/C(O)=C/C(=O)c1cccc(Cc2ccc(Cl)cc2)c1 have IC50 under 0.2 µM?
**A:** NO

**Q:** I'd appreciate it if you could check whether COc1cccc(Cc2cccc(C(=O)/C=C(\O)C(=O)O)c2)c1 has IC50 smaller than 0.2 µM.
**A:** YES

**Q:** Lab note: IC50 threshold 0.2 µM. Does this compound come in strictly under it? O=C(O)/C(O)=C/C(=O)C1C=CSC1Cc1ccccc1 (configuration not stated)
**A:** YES

**Q:** Identify whether the compound COc1ccc(Cc2cccc(C(=O)/C=C(\O)C(=O)O)c2)cc1 records IC50 below 0.2 µM.
**A:** YES

**Q:** In the record for CN(C)C(=O)C(=O)N(C)c1cc(C(=O)NCc2ccc(F)cc2)c(O)c2ncccc12 , is IC50 less than 0.2 µM?
**A:** YES

**Q:** State whether 0.2 µM exceeds IC50 recorded for O=C(O)/C(O)=C/C(=O)c1cc(OCc2ccccc2)cc(OCc2ccccc2)c1 .
**A:** YES

**Q:** Threshold test, IC50 < 0.2 µM: O=C(O)/C(O)=C/C(=O)c1cccc(Br)c1
**A:** NO

**Q:** Given the entry O=C(O)/C(O)=C/C(=O)c1cccc(OCc2ccccc2)c1 , would its reported IC50 be below 0.2 µM?
**A:** NO

**Q:** Does the reported IC50 of O=C(O)/C(O)=C/C(=O)c1cccc(Cc2ccccc2F)c1 stay below 0.2 µM?
**A:** YES

**Q:** Would you kindly verify if IC50 of O=C(/C=C(\O)C(=O)O)C(=O)c1cccc(C(=O)c2ccccc2)c1 is strictly less than 0.2 µM?
**A:** NO

**Q:** Consider the compound CC(=O)N1CCN(c2cc(C(=O)NCc3ccc(F)cc3)c(O)c3ncccc23)CC1 . Is its IC50 strictly less than 0.2 µM?
**A:** YES

**Q:** Please indicate whether the reported IC50 of O=C(O)/C(O)=C/C(=O)c1cccc(Cc2ccccc2Cl)c1 is strictly below 0.2 µM.
**A:** YES

**Q:** Item O=C(O)/C(O)=C/C(=O)c1cccc(Cc2cccc(Cl)c2)c1 : IC50 beneath 0.2 µM, strictly?
**A:** YES

**Q:** I wonder whether O=C(O)/C(O)=C/C(=O)c1csc(Cc2ccccc2)c1 has IC50 below 0.2 µM. Can you tell?
**A:** YES
